FYI, the data here is from PubChem BioAssay AID1259417.

assay_notes: M. tuberculosis growth inhibition, HTS (AID 1259417);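 further: bacteria grown with compound for 5 days at 37 °C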
condition_set: M. tuberculosis growth inhibition; stronger effect = higher value; concentration not given here
Screen size: about 1,100 compounds; about 760 (69%) were called active. So high a share suggests a set chosen from earlier hits. The list shows a part of the results.
endpoint: inhibition (%)
// return numeric value only (unit: %, not printed)

Here's what some known entries look like.
{"columns": ["molecule", "inhibition, %"],
 "data": [
  ["Cc1ccc(C)c(-c2nnc(NC(=O)C3CC3)o2)c1", 83.4],
  ["CC(C)(C)NCCCCOc1ccc(Cl)cc1C(C)(C)C", 43.9],
  ["COc1ccc(Cc2nnc(SCC(=O)NCCc3ccccc3)o2)cc1", 96.2],
  ["CC(C)(C)c1cc(Cl)ccc1OCCn1ccnc1", 95],
  ["CCC(=O)Nc1nnc(-c2ccc(C)cc2C)o1", 13.4]
]}

Given item O=C(NCC1COc2ccccc2O1)c1ccc(NC(=O)C2COc3ccccc3O2)cc1 (centres undefined) , the value recorded as its inhibition is -8.66

Given item O=[N+]([O-])c1ccc(NCCNc2nc3ccccc3nc2N2CCOCC2)cc1 , the value recorded as its inhibition is -3.69

Given item Cc1ccc(C)c(-c2nnc(NC(=O)C3COc4ccccc4O3)o2)c1 (centres undefined) , the value recorded as its inhibition is 90

Given item COc1cc(C(=O)Nc2sc3c(c2C(N)=O)CCCC3)c(Br)c(OC)c1OC , the value recorded as its inhibition is 4.82

Given item Cc1ccc(-c2csc3ncn(C(C)C(=O)OC4CCCCC4)c(=O)c23)cc1C (centres undefined) , the value recorded as its inhibition is -11

Given item NC(=O)c1c(NC(=O)c2c(F)c(F)c(F)c(F)c2F)sc2c1CCC2 , the value recorded as its inhibition is 95.4

Given item O=c1c2cc(Cl)ccc2oc2nc3n(c(=O)c12)CCCS3 , the value recorded as its inhibition is 98.2

Given item CC(C)(C)c1ccc(Cn2cnc([N+](=O)[O-])n2)cc1 , the value recorded as its inhibition is 96.6

Given item O=c1[nH]c(C=Cc2cccc3ccccc23)nc(O)c1[N+](=O)[O-] , the value recorded as its inhibition is 9.27

Given item NC(CC(=O)c1ccc(Cl)cc1Cl)C(Cl)(Cl)Cl (centres undefined) , the value recorded as its inhibition is 99.4

Given item CCCCC(=O)Nc1nnc(-c2ccc(Cl)s2)o1 , the value recorded as its inhibition is 19.7

Given item COc1ccc(Cc2nnc(SCC(=O)NCc3ccco3)o2)cc1 , the value recorded as its inhibition is 54.8

Given item O=C(/C=C/c1cccc([N+](=O)[O-])c1)c1cccs1 , the value recorded as its inhibition is 96.5

Given item O=C(Nc1nnc(-c2ccc(Cl)cc2)o1)C1CCCCC1 , the value recorded as its inhibition is 5.51

Given item Brc1c(OCCCn2ccnc2)ccc2ccccc12 , the value recorded as its inhibition is 99

---

assay_notes: M. tuberculosis growth inhibition, HTS (AID 1259417);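 further: bacteria grown with compound for 5 days at 37 °C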
condition_set: M. tuberculosis DsRed fluorescence growth inhibition; stronger effect = higher value; concentration not given here
Hit rate of the full screen: of about 1,100 compounds, about 760 (69%) were called active. The set was probably picked from earlier hits. Some of the results follow.
Returns one of True or False; True when inhibition is >= 40%.

The examples below pair each entry with its known result.
{"columns": ["molecule", "class_label"],
 "data": [
  ["COc1ccc(C(=O)Oc2ccc(C(=O)OCc3ccccc3)cc2)cc1OC", "False"],
  ["C=CCNc1nnc(Sc2ncccc2[N+](=O)[O-])s1", "True"],
  ["Cc1ccc(-c2c[n+](CC(=O)Nc3nc(-c4ccc(F)cc4)cs3)c3n2CCC3)cc1", "False"],
  ["CCOC(=O)COc1ccc2cc(-c3ccc(OC)c(OC)c3)c(=O)oc2c1", "True"]
]}

Is the recorded value of inhibition equal to or greater than 40% for this molecule? COC(=O)COc1ccc2cc(-c3ccc(OC)c(OC)c3)c(=O)oc2c1
False

Is the recorded value of inhibition equal to or greater than 40% for this molecule? CC(C)(C)c1cc(Cl)ccc1OCCCCn1ccnc1
True

Is the recorded value of inhibition equal to or greater than 40% for this molecule? CCOC(=O)C=CC(=O)Nc1nc(-c2ccccc2)cs1
True
